- Tested on: WI-38
- experimental_details: Cytotoxicity against human WI38 cells after 24 hrs by SRB assay
- Type: cell-based
- condition_parameters: WI-38, 24 h
Param label: returns Met when IC50 < 300 µM, returns Not met otherwise, including exact equality.

Field: example entries. Status: answers known.
molecule	label
COc1ccc(C2=C(C#N)C3=NC4=Nc5ccc(S(=O)(=O)N6CCOCC6)cc5C4=NC3C(O)=C2C#N)cc1 (centres undefined)	Not met
Cc1ccc(S(=O)(=O)N/N=C2\C(=O)Nc3ccc(S(=O)(=O)N4CCOCC4)cc32)cc1	Met
O=C1Nc2ccc(S(=O)(=O)N3CCOCC3)cc2C1=O	Not met

Determine if `COc1ccc(-c2c(C#N)c(N)n(/N=C3\C(=O)Nc4ccc(S(=O)(=O)N5CCOCC5)cc43)c(=O)c2C#N)cc1` shows IC50 strictly lower than 300 µM. Met

Is the reported IC50 for `COC(=O)c1ccccc1/N=C1\C(=O)Nc2ccc(S(=O)(=O)N3CCOCC3)cc21` strictly below 300 µM? Met

Strictly below 300 µM in IC50? `O=C1Nc2ccc(S(=O)(=O)N3CCOCC3)cc2/C1=N/c1ccc(Br)cc1` Not met

Problem: For the molecule `N/N=C1\C(=O)Nc2ccc(S(=O)(=O)N3CCOCC3)cc21` , is IC50 under 300 µM? Not met

---

- assay_target: Receptor tyrosine-protein kinase erbB-2 (Homo sapiens, UniProt P04626)
- Sequence (P04626 whole entry): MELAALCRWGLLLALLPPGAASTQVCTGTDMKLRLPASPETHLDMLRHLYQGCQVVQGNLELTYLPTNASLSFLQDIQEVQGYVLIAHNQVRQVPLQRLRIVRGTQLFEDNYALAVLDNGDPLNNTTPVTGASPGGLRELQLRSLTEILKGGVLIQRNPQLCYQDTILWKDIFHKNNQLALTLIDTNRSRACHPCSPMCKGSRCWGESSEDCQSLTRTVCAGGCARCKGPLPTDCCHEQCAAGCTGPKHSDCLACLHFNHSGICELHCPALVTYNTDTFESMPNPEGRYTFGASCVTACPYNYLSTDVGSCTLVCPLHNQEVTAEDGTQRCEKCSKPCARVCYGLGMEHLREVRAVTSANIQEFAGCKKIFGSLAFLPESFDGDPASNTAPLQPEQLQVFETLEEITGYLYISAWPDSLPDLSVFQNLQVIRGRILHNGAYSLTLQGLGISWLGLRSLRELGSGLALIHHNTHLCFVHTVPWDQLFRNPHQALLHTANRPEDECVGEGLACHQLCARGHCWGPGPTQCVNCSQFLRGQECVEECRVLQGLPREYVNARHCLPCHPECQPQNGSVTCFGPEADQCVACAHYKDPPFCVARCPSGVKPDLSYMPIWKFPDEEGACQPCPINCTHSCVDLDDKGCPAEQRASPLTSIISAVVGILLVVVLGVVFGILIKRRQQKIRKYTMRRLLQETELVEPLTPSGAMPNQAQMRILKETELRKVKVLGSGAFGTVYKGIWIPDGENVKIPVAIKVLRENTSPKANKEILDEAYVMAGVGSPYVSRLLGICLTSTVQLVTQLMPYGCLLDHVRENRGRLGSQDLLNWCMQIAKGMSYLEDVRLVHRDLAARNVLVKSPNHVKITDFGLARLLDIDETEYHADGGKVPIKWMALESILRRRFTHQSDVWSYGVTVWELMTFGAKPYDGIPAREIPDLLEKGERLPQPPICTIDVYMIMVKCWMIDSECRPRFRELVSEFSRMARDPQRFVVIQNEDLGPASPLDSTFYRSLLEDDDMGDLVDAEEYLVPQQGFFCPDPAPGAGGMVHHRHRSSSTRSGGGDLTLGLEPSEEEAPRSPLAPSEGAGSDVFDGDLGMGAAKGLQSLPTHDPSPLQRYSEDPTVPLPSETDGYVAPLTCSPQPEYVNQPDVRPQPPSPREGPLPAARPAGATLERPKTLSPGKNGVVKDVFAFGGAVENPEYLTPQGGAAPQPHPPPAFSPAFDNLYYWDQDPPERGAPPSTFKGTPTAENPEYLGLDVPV
- experimental_details: Inhibition of recombinant human GST-tagged HER2 (676-end) expressed in baculovirus infected Sf9 insect cells preincubated for 5 mins followed by ATP addition and measured after 30 mins by HTRF assay
readout_label: IC50 (µM)
State the answer as a number, implicitly in µM.

Consider the compound shown here: `N#CCC(=O)N/N=C1\C(=O)Nc2ccc(S(=O)(=O)N3CCOCC3)cc21` What is its recorded IC50? 0.24

---

- experimental_details: Inhibition of recombinant human FGFR preincubated for 5 mins followed by ATP addition and measured after 30 mind by HTRF assay
Listed below: IC50 values for each entry.
Kindly format the answer as number then unit.

Report IC50 for C#Cc1cccc(Nc2ncnc3cc(OCCOC)c(OCCOC)cc23)c1 [ERLOTINIB] please. 30 nM

Give the measured IC50 of `N#CCC(=O)N/N=C1\C(=O)Nc2ccc(S(=O)(=O)N3CCOCC3)cc21` . 378 nM

---

- System: WI-38
- experimental_details: Cytotoxicity against human WI38 cells after 24 hrs by SRB assay
- Type: cell-based
- condition_parameters: WI-38, 24 h
Entries annotated with measured IC50
# unit: µM | format: bare number

Consider the following illustrative entries.
O=C1Nc2ccc(S(=O)(=O)N3CCOCC3)cc2/C1=N/NS(=O)(=O)c1ccccc1 302
O=S(=O)(c1ccc2[nH]c3nc4ccccc4nc3c2c1)N1CCOCC1 418
O=C1Nc2ccc(S(=O)(=O)N3CCOCC3)cc2/C1=N/c1ccc(C(=O)O)cc1 313
N=c1oc2ccccc2cc1C(=O)N/N=C1\C(=O)Nc2ccc(S(=O)(=O)N3CCOCC3)cc21 132
O=C1Nc2ccc(S(=O)(=O)N3CCOCC3)cc2/C1=N/c1cccc(C(F)(F)F)c1 226
CC(=O)c1cccc(/N=C2\C(=O)Nc3ccc(S(=O)(=O)N4CCOCC4)cc32)c1 177

Need IC50 of `O=C1Nc2ccc(S(=O)(=O)N3CCOCC3)cc2/C1=N/Nc1ccccc1` , thanks. 262

Reported IC50, compound `O=C1Nc2ccc(S(=O)(=O)N3CCOCC3)cc2/C1=N/c1ccc(/N=C2\C(=O)Nc3ccc(S(=O)(=O)N4CCOCC4)cc32)cc1` : ____ 203

Report IC50 for `O=C1Nc2ccc(S(=O)(=O)N3CCOCC3)cc2/C1=N/c1ccc(O)cc1` please. 259

Entry under review: `Cc1ccc(/N=C2\C(=O)Nc3ccc(S(=O)(=O)N4CCOCC4)cc32)cc1` . Reported IC50? 309

# get_value(readout='IC50', item= `O=C1Nc2ccc(S(=O)(=O)N3CCOCC3)cc2/C1=N/c1ccc(Cl)cc1` ) 468

Fill in: IC50 of `CC(=O)N/N=C1\C(=O)Nc2ccc(S(=O)(=O)N3CCOCC3)cc21` is ___ 325
